Sourced from paper PMC9958325

PROCEDURE SUMMARY: Pharmacokinetic study in PXB-mice (human liver-chimeric)
TEST CONDITIONS: male, PXB (human liver-chimeric), mouse, plasma, iv, 10 mg/kg, Plasma concentration, PXB-mice, i.v. 10 mg/kg, 24 hr; individual mice
READOUT TYPE: concentration at 24 hr (ng/mL)
Value expressed in ng/mL; do not type the unit.

Input line: Determine its reported concentration at 24 hr: CC(C)(C)[C@H](NC(=O)C(F)(F)F)C(=O)N1C[C@H]2[C@@H]([C@H]1C(=O)N[C@H](C#N)C[C@@H]1CCNC1=O)C2(C)C [Nirmatrelvir, reference compound]
Output line: 0
